Catalogue of compounds with associated REE
Assay: Chronic toxicity of suppositories: indexes of peripheral blood
Format: in vivo, rats
Details: male rats, suppositories rectally, 500 mg/kg, 1 month; control 2.2 ± 0.4
measured_quantity: REE (mm/h)

[[record]]
compound = "O=c1[nH][nH]c(=O)c2c(Br)ncnc12.[K] [Compound 37]"
measured_quantity = "REE"
unit_spec = "mm/h"
reported_measurement = 2.2

[[record]]
compound = "O=C([O-])c1ncnc2c(=O)n([C@@H]3O[C@H](CO)[C@@H](O)[C@H]3O)[nH]c(=O)c12.[Na+] [Compound 34]"
measured_quantity = "REE"
unit_spec = "mm/h"
reported_measurement = 2.0

[[record]]
compound = "O=c1[nH]n([C@@H]2O[C@H](CO)[C@@H](O)[C@H]2O)c(=O)c2nc(O)cnc12.[Na].[Na] [Compound 23]"
measured_quantity = "REE"
unit_spec = "mm/h"
reported_measurement = 2.0

[[record]]
compound = "Nc1cccc2c(=O)[nH][nH]c(=O)c12.[Na] [Compound 15]"
measured_quantity = "REE"
unit_spec = "mm/h"
reported_measurement = 2.2


---

Catalogue of molecules with associated i
Test: Electrochemical activity: polarographic reduction on mercury dripping electrode
Type: physicochemical
Settings: pH 7.6; 2.0% sodium chloride background, 37° C., 9·10^−4 M, forward trace; average for the group of compounds
measured_quantity: i (mkA)

[[record]]
molecule = "Nc1ncc2c(=O)[nH][nH]c(=O)c2n1 [Compound 36]"
reported_measurement = 0.30

[[record]]
molecule = "O=c1[nH]n([C@@H]2O[C@H](CO)[C@@H](O)[C@H]2O)c(=O)c2ncnc(O)c12.[Na] [Compound 33]"
reported_measurement = 0.30

[[record]]
molecule = "Nc1cccc2c(=O)n([C@@H]3O[C@H](CO)[C@@H](O)[C@H]3O)[nH]c(=O)c12.[Na] [Compound 10]"
reported_measurement = 0.31

[[record]]
molecule = "O=c1[nH][nH]c(=O)c2ncncc12.[Li] [Compound 35]"
reported_measurement = 0.30

[[record]]
molecule = "O=c1[nH]n([C@@H]2O[C@H](CO)[C@@H](O)[C@H]2O)c(=O)c2ncccc12.[Na] [Compound 1]"
reported_measurement = 0.30

[[record]]
molecule = "O=c1[nH][nH]c(=O)c2nccnc12.[Li] [Compound 25]"
reported_measurement = 0.34

[[record]]
molecule = "O=c1[nH]n([C@@H]2O[C@H](CO)[C@@H](O)[C@H]2O)c(=O)c2nc(O)cnc12.[Na].[Na] [Compound 23]"
reported_measurement = 0.34

[[record]]
molecule = "COP(=O)(OC)C(C)(C)CC(C)=O [Dimesphosphon, reference compound]"
reported_measurement = 0.11

[[record]]
molecule = "O=c1[nH][nH]c(=O)c2ncccc12.[Na] [Compound 7]"
reported_measurement = 0.30

[[record]]
molecule = "Nc1cccc2c(=O)[nH][nH]c(=O)c12.[Na] [Compound 15]"
reported_measurement = 0.31

[[record]]
molecule = "O=C([O-])c1ccc2c(=O)[nH][nH]c(=O)c2c1.O=C([O-])c1ccc2c(=O)[nH][nH]c(=O)c2c1.[Na+].[Na+] [Compound 18]"
reported_measurement = 0.31


---

Test: Electrochemical activity: polarographic reduction on mercury dripping electrode
Format: physicochemical
Settings: pH 7.0; vs SCE, 37° C., forward trace; average for the group of compounds
Catalogue of molecules with associated −E1/2
measured_quantity: −E1/2 (V)

[[record]]
molecule = "O=c1[nH]n([C@@H]2O[C@H](CO)[C@@H](O)[C@H]2O)c(=O)c2ncnc(O)c12.[Na] [Compound 33]"
unit_spec = "V"
reported_measurement = 0.08

[[record]]
molecule = "O=c1[nH]n([C@@H]2O[C@H](CO)[C@@H](O)[C@H]2O)c(=O)c2ncccc12.[Na] [Compound 1]"
unit_spec = "V"
reported_measurement = 0.11

[[record]]
molecule = "O=c1[nH][nH]c(=O)c2ncncc12.[Li] [Compound 35]"
unit_spec = "V"
reported_measurement = 0.08

[[record]]
molecule = "Nc1cccc2c(=O)[nH][nH]c(=O)c12.[Na] [Compound 15]"
unit_spec = "V"
reported_measurement = 0.092

[[record]]
molecule = "O=c1[nH][nH]c(=O)c2ncccc12.[Na] [Compound 7]"
unit_spec = "V"
reported_measurement = 0.11

[[record]]
molecule = "O=c1[nH][nH]c(=O)c2nccnc12.[Li] [Compound 25]"
unit_spec = "V"
reported_measurement = 0.16

[[record]]
molecule = "O=C([O-])c1ccc2c(=O)[nH][nH]c(=O)c2c1.O=C([O-])c1ccc2c(=O)[nH][nH]c(=O)c2c1.[Na+].[Na+] [Compound 18]"
unit_spec = "V"
reported_measurement = 0.092

